# assay system: Kras and SOS1 (biotin-tagged human Kras loaded with GDP, His-tagged human SOS1) (Homo sapiens, UniProt P01116, G12D)
# Construct: made in house; host or cells: E. coli (stated for Kras only)
# Sequence (P01116 1-188 isoform P01116-2 G12D): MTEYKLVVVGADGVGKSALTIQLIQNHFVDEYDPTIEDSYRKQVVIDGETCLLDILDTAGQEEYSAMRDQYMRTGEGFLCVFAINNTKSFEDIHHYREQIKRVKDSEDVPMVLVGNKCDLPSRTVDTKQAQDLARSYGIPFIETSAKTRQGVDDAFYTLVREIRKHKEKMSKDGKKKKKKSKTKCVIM
# test summary: Protein-protein interaction inhibition between Kras and SOS1 (KrasGl2D-SOS PPI) using AlphaScreen
# Assay type: binding
# condition details: AlphaScreen; biotin-tagged human Kras loaded with GDP, His-tagged human SOS1; read-out: KRAS G12D-SOS PPI IC50
pIC50: −log10 of the molar value. Starred links: 1 amine or outer side, 2 acyl side, 3 side chain; linkers in the order of their positions; H or OH if unused. Positions of bridges follow the written chain, without caps; N, C: chain ends. Non-standard residues stand in square brackets, D forms with d. Residues, ends and D or L forms follow the SMILES beside them. *: point of attachment. hPhe(3-Cl-4-CF3) = N[C@@H](CCc1ccc(C(F)(F)F)c(Cl)c1)C(=O)O; NEtPhe(4-Me) = CCN[C@@H](Cc1ccc(C)cc1)C(=O)O; NMePhe(4-Me) = CN[C@@H](Cc1ccc(C)cc1)C(=O)O; NMedβ3hAla = C[C@H](CC(=O)[*:2])N(C)[*:1]; NMeGly(cPent) = CN[C@H](C(=O)O)C1CCCC1; Phe(3-I) = N[C@@H](Cc1cccc(I)c1)C(=O)O; NMeY = CN[C@@H](Cc1ccc(O)cc1)C(=O)O; NMeCha = CN[C@@H](CC1CCCCC1)C(=O)O; Hyp = O=C(O)[C@@H]1C[C@@H](O)CN1; NMeChg = CN[C@H](C(=O)O)C1CCCCC1; NMeF = CN[C@@H](Cc1ccccc1)C(=O)O; NMeD = CN[C@@H](CC(=O)O)C(=O)O; NMeL = CN[C@@H](CC(C)C)C(=O)O; NMehSer = CN[C@@H](CCO)C(=O)O; NMeV = CN[C@H](C(=O)O)C(C)C; NMeA = CN[C@@H](C)C(=O)O; Piperidide = C1CCN(*)CC1; Pyrrolidide = C1CCN(*)C1; Ac5c = NC1(C(=O)O)CCCC1; Aze = O=C(O)[C@@H]1CCN1; Sar = CNCC(=O)O

{"compound": "CC[C@H](C)[C@@H]1NC(=O)[C@H](C)N(C)C(=O)C[C@@H](C(=O)N2CCCC2)N(C)C(=O)[C@H](CC(C)C)NC(=O)[C@H](Cc2ccccc2)N(C)C(=O)[C@H](C)NC(=O)[C@H](Cc2cccc(I)c2)NC(=O)CN(C)C(=O)[C@H](Cc2ccc(OC)cc2)N(C)C(=O)[C@@H]2CCN2C(=O)[C@H](C)N(C)C1=O [Compound 604] ([NMeA]I[NMeA][Aze][NMeY](Me)[Sar][Phe(3-I)]A[NMeF]L[NMeD]-Pyrrolidide; lactam N-11)", "pIC50": 7.80}
{"compound": "CC[C@H](C)[C@@H]1NC(=O)[C@H](CC(C)C)N(C)C(=O)C[C@@H](C(=O)N2CCCCC2)N(C)C(=O)[C@H](C2CCCCC2)N(C)C(=O)C2(CCCC2)NC(=O)[C@@H]2CCCN2C(=O)[C@H](CCc2ccc(C(F)(F)F)c(Cl)c2)NC(=O)CN(C)C(=O)[C@H](Cc2ccc(C)cc2)N(C)C(=O)CN(C)C(=O)CN(C)C1=O [Compound 1804] ([NMeL]I[Sar][Sar][NMePhe(4-Me)][Sar][hPhe(3-Cl-4-CF3)]P[Ac5c][NMeChg][NMeD]-Piperidide; lactam N-11)", "pIC50": 9.29}
{"compound": "CC[C@H](C)[C@@H]1NC(=O)[C@H](CC(C)C)N(C)C(=O)C[C@@H](C(=O)N2CCCCC2)N(C)C(=O)[C@H](C(C)C)N(C)C(=O)C2(CCCC2)NC(=O)[C@H](C)N(C)C(=O)[C@H](CCc2ccc(C(F)(F)F)c(Cl)c2)NC(=O)CN(C)C(=O)[C@H](CC2CCCCC2)N(C)C(=O)[C@@H]2CCN2C(=O)[C@H](C)N(C)C1=O [Compound 1243] ([NMeL]I[NMeA][Aze][NMeCha][Sar][hPhe(3-Cl-4-CF3)][NMeA][Ac5c][NMeV][NMeD]-Piperidide; lactam N-11)", "pIC50": 7.57}
{"compound": "CCO[C@@H]1C[C@H]2C(=O)NC3(CCCC3)C(=O)N(C)[C@@H](C3CCCC3)C(=O)N(C)[C@H](C)CC(=O)N(C)[C@@H](CC(C)C)C(=O)N[C@@H]([C@@H](C)CC)C(=O)N[C@@H](C)C(=O)N3CC[C@H]3C(=O)N(CC)[C@@H](Cc3ccc(C)cc3)C(=O)N(C)CC(=O)N[C@@H](CCc3ccc(C(F)(F)F)c(Cl)c3)C(=O)N2C1 [Compound 525] (cyclo(A[Aze][NEtPhe(4-Me)][Sar][hPhe(3-Cl-4-CF3)][Hyp](Et)[Ac5c][NMeGly(cPent)][NMedβ3hAla][NMeL]I))", "pIC50": 8.64}
{"compound": "CC[C@H](C)[C@@H]1NC(=O)[C@H](CC(C)C)N(C)C(=O)C[C@@H](C(=O)N2CCCCC2)N(C)C(=O)[C@H](CCOC)N(C)C(=O)C2(CCCC2)NC(=O)[C@@H]2CCCN2C(=O)[C@H](CCc2ccc(C(F)(F)F)c(Cl)c2)NC(=O)CN(C)C(=O)[C@H](CC2CCCCC2)N(C)C(=O)CN(C)C(=O)CN(C)C1=O [Compound 744] ([NMeL]I[Sar][Sar][NMeCha][Sar][hPhe(3-Cl-4-CF3)]P[Ac5c][NMehSer](Me)[NMeD]-Piperidide; lactam N-11)", "pIC50": 8.12}

---

# assay system: Kras and SOS1 (biotin-tagged human Kras loaded with GDP, His-tagged human SOS1) (Homo sapiens, UniProt P01116, G12D)
# Construct: made in house; host or cells: E. coli (stated for Kras only)
# test summary: Protein-protein interaction inhibition between Kras and SOS1 (KrasGl2D-SOS PPI) using AlphaScreen
# Type: binding
# condition details: AlphaScreen; biotin-tagged human Kras loaded with GDP, His-tagged human SOS1; read-out: KRAS G12D-SOS PPI IC50
Starred links: 1 amine or outer side, 2 acyl side, 3 side chain; linkers in the order of their positions; H or OH if unused. Positions of bridges follow the written chain, without caps; N, C: chain ends. Non-standard residues stand in square brackets, D forms with d. Residues, ends and D or L forms follow the SMILES beside them. *: point of attachment. hPhe(3-Cl-4-CF3) = N[C@@H](CCc1ccc(C(F)(F)F)c(Cl)c1)C(=O)O; X29 = N#Cc1cc(CC[C@H](N[*:1])C(=O)[*:2])cc(Cl)c1Cl; hPhe(4-CF3) = N[C@@H](CCc1ccc(C(F)(F)F)cc1)C(=O)O; NMePhe(4-Cl) = CN[C@@H](Cc1ccc(Cl)cc1)C(=O)O; NMePhe(4-Me) = CN[C@@H](Cc1ccc(C)cc1)C(=O)O; X11 = CN([C@@H](CCc1cccnc1)C(=O)[*:2])[*:1]; NMePhe(4-F) = CN[C@@H](Cc1ccc(F)cc1)C(=O)O; X83 = O=C([C@H](Cc1cncc(Br)c1)N[*:1])[*:2]; NMeGly(cPent) = CN[C@H](C(=O)O)C1CCCC1; Phe(3-I) = N[C@@H](Cc1cccc(I)c1)C(=O)O; NMeY = CN[C@@H](Cc1ccc(O)cc1)C(=O)O; NMeCha = CN[C@@H](CC1CCCCC1)C(=O)O; NMeChg = CN[C@H](C(=O)O)C1CCCCC1; NMeD = CN[C@@H](CC(=O)O)C(=O)O; CH2CONHtBu = CC(C)(C)NC(=O)C*; NMeL = CN[C@@H](CC(C)C)C(=O)O; NMeNle = CCCC[C@H](NC)C(=O)O; NMeV = CN[C@H](C(=O)O)C(C)C; NMeAbu = CC[C@H](NC)C(=O)O; NMeS = CN[C@@H](CO)C(=O)O; NMeA = CN[C@@H](C)C(=O)O; NMeAib = CNC(C)(C)C(=O)O; Nle = CCCC[C@H](N)C(=O)O; Piperidide = C1CCN(*)CC1; Pra = C#CC[C@H](N)C(=O)O; Pyrrolidide = C1CCN(*)C1; Ac5c = NC1(C(=O)O)CCCC1; Aze = O=C(O)[C@@H]1CCN1; Sar = CNCC(=O)O

{"compound": "CCCC[C@@H]1NC(=O)[C@H](Cc2cncc(Br)c2)NC(=O)CN(C)C(=O)[C@H](Cc2ccc(OC)cc2)N(C)C(=O)[C@@H]2CCN2C(=O)[C@H](C)N(C)C(=O)[C@H]([C@@H](C)CC)NC(=O)[C@H](CC)N(C)C(=O)C[C@@H](C(=O)N2CCCCC2)N(C)C(=O)[C@H](CC(C)C)NC(=O)C(C)(C)N(C)C1=O [Compound 1240] ([NMeAbu]I[NMeA][Aze][NMeY](Me)[Sar][X83][Nle][NMeAib]L[NMeD]-Piperidide; lactam N-11)", "IC50 [nM]": 290}
{"compound": "CC[C@H](C)[C@@H]1NC(=O)[C@H](CC(C)C)N(C)C(=O)C[C@@H](C(=O)N(C)C)N(C)C(=O)[C@H](C2CCCC2)N(C)C(=O)C2(CCCC2)NC(=O)[C@H](CCc2cccnc2)N(C)C(=O)[C@H](CCc2ccc(C(F)(F)F)c(Cl)c2)NC(=O)CN(C)C(=O)[C@H](CC2CCCCC2)N(C)C(=O)[C@@H]2CCN2C(=O)[C@H](C)N(C)C1=O [Compound 1892] ([NMeL]I[NMeA][Aze][NMeCha][Sar][hPhe(3-Cl-4-CF3)][X11][Ac5c][NMeGly(cPent)][NMeD]-NMe2; lactam N-11)", "IC50 [nM]": 1.5}
{"compound": "CCCC[C@H]1C(=O)N[C@@H]([C@@H](C)CC)C(=O)N(C)CC(=O)N(C)CC(=O)N(C)[C@@H](CC2CCCCC2)C(=O)N(C)CC(=O)N[C@@H](CCc2ccc(C(F)(F)F)c(Cl)c2)C(=O)N2CCC[C@H]2C(=O)NC2(CCCC2)C(=O)N(C)[C@@H](C2CCCCC2)C(=O)N(C)[C@H](C(=O)N2CCCCC2)CC(=O)N1C [Compound 1740] ([NMeNle]I[Sar][Sar][NMeCha][Sar][hPhe(3-Cl-4-CF3)]P[Ac5c][NMeChg][NMeD]-Piperidide; lactam N-11)", "IC50 [nM]": 0.79}
{"compound": "CC[C@H](C)[C@@H]1NC(=O)[C@H](C)N(C)C(=O)C[C@@H](C(=O)N2CCCCC2)N(C)C(=O)[C@H](C(C)C)N(C)C(=O)C2(CCCC2)NC(=O)[C@@H]2CCCN2C(=O)[C@H](CCc2cc(Cl)c(Cl)c(C#N)c2)NC(=O)CN(C)C(=O)[C@H](CC2CCCCC2)N(C)C(=O)CN(C)C(=O)CN(C)C1=O [Compound 2071] ([NMeA]I[Sar][Sar][NMeCha][Sar][X29]P[Ac5c][NMeV][NMeD]-Piperidide; lactam N-11)", "IC50 [nM]": 9.2}
{"compound": "CC[C@H](C)[C@@H]1NC(=O)[C@H](CC(C)C)N(C)C(=O)C[C@@H](C(=O)N(C)C)N(C)C(=O)[C@H](C2CCCC2)N(C)C(=O)[C@H](C(C)C)NC(=O)[C@@H](C)NC(=O)[C@H](CCc2ccc(C(F)(F)F)c(Cl)c2)NC(=O)CN(C)C(=O)[C@H](CC2CCCCC2)N(C)C(=O)[C@@H]2CCN2C(=O)[C@H](C)N(C)C1=O [Compound 24] ([NMeL]I[NMeA][Aze][NMeCha][Sar][hPhe(3-Cl-4-CF3)][dA]V[NMeGly(cPent)][NMeD]-NMe2; lactam N-11)", "IC50 [nM]": 25}
{"compound": "C#CC[C@@H]1NC(=O)[C@H](Cc2cccc(I)c2)NC(=O)CN(C)C(=O)[C@H](Cc2ccc(F)cc2)N(C)C(=O)[C@@H]2CCN2C(=O)CN(C)C(=O)[C@H]([C@@H](C)CC)NC(=O)[C@H](CC(C)C)N(C)C(=O)C[C@@H](C(=O)N2CCCCC2)N(C)C(=O)[C@H](CC(C)C)NC(=O)C(C)(C)N(C)C1=O [Compound 1344] ([NMeL]I[Sar][Aze][NMePhe(4-F)][Sar][Phe(3-I)][Pra][NMeAib]L[NMeD]-Piperidide; lactam N-11)", "IC50 [nM]": 190}
{"compound": "CC[C@H](C)[C@@H]1NC(=O)[C@H](CC(C)C)N(C)C(=O)C[C@@H](C(=O)N(C)C)N(C)C(=O)[C@H](C2CCCC2)N(C)C(=O)C2(CCCC2)NC(=O)[C@H](Cc2ccc(C)cc2)N(C)C(=O)[C@H](CCc2ccc(C(F)(F)F)c(Cl)c2)NC(=O)CN(C)C(=O)[C@H](CC2CCCCC2)N(C)C(=O)[C@@H]2CCN2C(=O)[C@H](C)N(C)C1=O [Compound 908] ([NMeL]I[NMeA][Aze][NMeCha][Sar][hPhe(3-Cl-4-CF3)][NMePhe(4-Me)][Ac5c][NMeGly(cPent)][NMeD]-NMe2; lactam N-11)", "IC50 [nM]": 39}
{"compound": "CC[C@H](C)[C@@H]1NC(=O)[C@H](C2CCCCC2)N(C)C(=O)C[C@@H](C(=O)N2CCCCC2)N(C)C(=O)[C@H](C(C)C)N(C)C(=O)C2(CCCC2)NC(=O)[C@@H]2CCCN2C(=O)[C@H](CCc2ccc(C(F)(F)F)c(Cl)c2)NC(=O)CN(C)C(=O)[C@H](CC2CCCCC2)N(C)C(=O)CN(C)C(=O)CN(C)C1=O [Compound 106] ([NMeChg]I[Sar][Sar][NMeCha][Sar][hPhe(3-Cl-4-CF3)]P[Ac5c][NMeV][NMeD]-Piperidide; lactam N-11)", "IC50 [nM]": 8.9}
{"compound": "CC[C@H](C)[C@@H]1NC(=O)[C@H](C)N(C)C(=O)C[C@@H](C(=O)N2CCCC2)NC(=O)[C@H](CC(C)C)N(C)C(=O)[C@H](COCC(=O)NC(C)(C)C)N(C)C(=O)[C@H](CC(C)C)NC(=O)[C@H](CCc2ccc(C(F)(F)F)cc2)NC(=O)CN(C)C(=O)[C@H](Cc2ccc(Cl)cc2)N(C)C(=O)CN(C)C(=O)CN(C)C1=O [Compound 889] ([NMeA]I[Sar][Sar][NMePhe(4-Cl)][Sar][hPhe(4-CF3)]L[NMeS](CH2CONHtBu)[NMeL]D-Pyrrolidide; lactam N-11)", "IC50 [nM]": 70}
